# System: U2OS
# Experimental protocol: Multiplex assay against U2OS
# Assay type: toxicity, cell-based
# Study conditions: human, 12 h, 10 µM, compound concentration 10 uM, replicate 2
Lab note: compare Population Pyknosed Nuclei (%) with 7%, writing 1 (yes) if less and 0 (no) if equal or more.

Example cases with answers are listed next.
c1cc(OCCCN2CCCCC2)ccc1CN1CCCCC1 : 1 (yes)
CN1CCN2c3ncccc3Cc3ccccc3C2C1 (stereo not given) : 1 (yes)

input: Take the compound CCNC1(C(N)=O)CCN(c2ncnc3c2nc(-c2ccccc2Cl)n3-c2ccc(Cl)cc2)CC1 and say whether its Population Pyknosed Nuclei (%) is less than 7%.
output: 0 (no)

input: Take the compound O=C(O)c1cc2ccccc2c(Cc2c(O)c(C(=O)O)cc3ccccc23)c1O and say whether its Population Pyknosed Nuclei (%) is less than 7%.
output: 1 (yes)

Recorded values, source ChEMBL document CHEMBL5058577.
